Measured values drawn from ChEMBL document CHEMBL6182944 for this set.

- test system: MATE1 (Homo sapiens)
- protocol text: in vitro
- particulars: HEK293 cells expressing MATE1
assay metric: uptake ratio at 1 min, 2.5 µM

Below: 3 compounds and their reported uptake ratio at 1 min, 2.5 µM.
{"compound": "CCCCCCCN(CC)CCCC(O)c1ccc(NS(C)(=O)=O)cc1 (centres undefined) [IBUTILIDE]", "test system": "MATE1 (Homo sapiens)", "uptake ratio at 1 min, 2.5 µM": "< 2"}
{"compound": "c1c2c(cc3c1OCO3)-c1cc3ccc4c(c3c[n+]1CC2)OCO4 [COPTISINE]", "test system": "MATE1 (Homo sapiens)", "uptake ratio at 1 min, 2.5 µM": "> 2"}
{"compound": "CNC(=C[N+](=O)[O-])NCCSCc1csc(CN(C)C)n1 [NIZATIDINE]", "test system": "MATE1 (Homo sapiens)", "uptake ratio at 1 min, 2.5 µM": "> 2"}

Provide measured uptake ratio at 1 min, 2.5 µM value, entry: NCCc1cccc(O)c1
> 2

====

- test system: MATE2-K (Homo sapiens)
- Sequence (Q86VL8 whole entry): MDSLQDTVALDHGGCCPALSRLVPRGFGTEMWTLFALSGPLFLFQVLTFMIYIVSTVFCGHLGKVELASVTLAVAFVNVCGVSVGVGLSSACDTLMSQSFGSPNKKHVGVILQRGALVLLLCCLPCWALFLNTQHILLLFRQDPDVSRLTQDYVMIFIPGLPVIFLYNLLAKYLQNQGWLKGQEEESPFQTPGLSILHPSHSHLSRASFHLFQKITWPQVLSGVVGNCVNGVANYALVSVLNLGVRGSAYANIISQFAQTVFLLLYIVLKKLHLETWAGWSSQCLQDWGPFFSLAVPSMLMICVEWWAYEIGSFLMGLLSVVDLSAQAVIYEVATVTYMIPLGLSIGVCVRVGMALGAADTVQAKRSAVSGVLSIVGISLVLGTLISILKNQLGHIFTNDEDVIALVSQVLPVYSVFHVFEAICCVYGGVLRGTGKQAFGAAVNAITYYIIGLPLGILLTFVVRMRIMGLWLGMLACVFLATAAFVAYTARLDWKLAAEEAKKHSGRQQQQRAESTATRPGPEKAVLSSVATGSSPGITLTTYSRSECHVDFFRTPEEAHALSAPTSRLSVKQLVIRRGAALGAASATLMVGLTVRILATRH
- protocol text: in vitro
- particulars: HEK293 cells expressing MATE2-K
assay metric: uptake ratio at 1 min, 2.5 µM

{"compound": "COc1cc2c(cc1OC)-c1cc3ccc4c(c3c[n+]1CC2)OCO4", "uptake ratio at 1 min, 2.5 µM": "> 2"}
{"compound": "CC(C)(CO)[C@@H](O)C(=O)NCCC(=O)O", "uptake ratio at 1 min, 2.5 µM": "< 2"}
{"compound": "O=c1ncccn1[C@@H]1O[C@H](CO)[C@@H](O)[C@H]1O", "uptake ratio at 1 min, 2.5 µM": "< 2"}
{"compound": "c1c2c(cc3c1OCO3)-c1cc3ccc4c(c3c[n+]1CC2)OCO4", "uptake ratio at 1 min, 2.5 µM": "> 2"}
{"compound": "Nc1nc(CC(=O)Nc2ccc(CCNC[C@H](O)c3ccccc3)cc2)cs1", "uptake ratio at 1 min, 2.5 µM": "> 2"}

Would you kindly look at the next entry?
Give the value of uptake ratio at 1 min, 2.5 µM reported for the following: CNCC(O)c1ccc(O)cc1 (stereo not drawn)
< 2

====

- test system: MATE1 (Homo sapiens, UniProt Q96FL8)
- Sequence (Q96FL8 whole entry): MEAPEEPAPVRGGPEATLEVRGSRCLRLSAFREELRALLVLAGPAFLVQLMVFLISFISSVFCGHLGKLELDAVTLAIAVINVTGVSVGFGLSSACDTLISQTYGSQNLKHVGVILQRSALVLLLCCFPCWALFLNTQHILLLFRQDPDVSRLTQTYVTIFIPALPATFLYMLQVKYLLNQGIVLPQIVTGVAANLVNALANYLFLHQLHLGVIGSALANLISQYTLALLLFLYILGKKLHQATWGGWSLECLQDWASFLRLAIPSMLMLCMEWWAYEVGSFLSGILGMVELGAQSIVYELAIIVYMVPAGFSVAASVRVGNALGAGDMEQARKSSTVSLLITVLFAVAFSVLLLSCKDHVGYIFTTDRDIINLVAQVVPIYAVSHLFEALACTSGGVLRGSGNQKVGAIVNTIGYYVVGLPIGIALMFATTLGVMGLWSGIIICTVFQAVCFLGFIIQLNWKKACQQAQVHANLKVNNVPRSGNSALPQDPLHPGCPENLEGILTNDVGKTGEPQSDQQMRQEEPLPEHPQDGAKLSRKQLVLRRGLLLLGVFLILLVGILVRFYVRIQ
- protocol text: in vitro
- particulars: hek293
assay metric: uptake ratio at 1 min, 2.5 µM

{"molecule": "CCCCNC(=N)NC(=N)N", "uptake ratio at 1 min, 2.5 µM": "> 2"}
{"molecule": "Cc1ncc(CO)c(CO)c1O", "uptake ratio at 1 min, 2.5 µM": "> 2"}
{"molecule": "O=C1CC2(CCCC2)CC(=O)N1CCCCN1CCN(c2ncccn2)CC1", "uptake ratio at 1 min, 2.5 µM": "> 2"}
{"molecule": "CN[C@@H]1CCc2[nH]c3ccc(C(N)=O)cc3c2C1", "uptake ratio at 1 min, 2.5 µM": "> 2"}
{"molecule": "CC(C)NCC(O)COc1ccc(CCOCC2CC2)cc1 (stereo not given)", "uptake ratio at 1 min, 2.5 µM": "< 2"}
{"molecule": "O=c1cccc2n1C[C@@H]1CNC[C@H]2C1", "uptake ratio at 1 min, 2.5 µM": "> 2"}
{"molecule": "[H]/N=C(/N)N/C(=N/[H])NCCc1ccccc1", "uptake ratio at 1 min, 2.5 µM": "> 2"}
{"molecule": "CNC[C@H](O)c1cccc(O)c1", "uptake ratio at 1 min, 2.5 µM": "> 2"}
{"molecule": "C[C@H](NCCc1ccc(O)cc1)[C@H](O)c1ccc(O)cc1", "uptake ratio at 1 min, 2.5 µM": "> 2"}
{"molecule": "O=C(O)c1cccnc1", "uptake ratio at 1 min, 2.5 µM": "< 2"}

// fetch uptake ratio at 1 min, 2.5 µM given entry CN(C)CCCN1c2ccccc2Sc2ccc(Cl)cc21
< 2

Look up and report measured uptake ratio at 1 min, 2.5 µM for this entry: Cc1cccc(C)c1OCC(C)N (racemic)
< 2

Output uptake ratio at 1 min, 2.5 µM of NCCCNCCCCNCCCN
< 2

Return the recorded uptake ratio at 1 min, 2.5 µM value; entry: O=C1CCc2ccc(OCCCCN3CCN(c4cccc(Cl)c4Cl)CC3)cc2N1
< 2

Return reported uptake ratio at 1 min, 2.5 µM. Input molecule: CNCCc1ccccn1
< 2
